Assay: Inhibition of alpha-glucosidase (unknown origin)
Parameters: species or system Homo sapiens
readout-type: IC50 (µM)

In the examples that follow, each entry is paired with its recorded IC50.
* C[C@H]1C[C@@]23CC[C@H]4[C@@](C)([C@@H](OC(=O)c5cccnc5)CC[C@@]4(C)C(=O)O)[C@@H]2CC[C@H]1C3 | 71.4
* C[C@H]1C[C@@]23CC[C@H]4[C@@](C)([C@@H](OC(=O)/C=C/c5ccccc5)CC[C@@]4(C)C(=O)O)[C@@H]2CC[C@H]1C3 | 17.1
* C=C1C[C@@]23CC[C@H]4[C@@](C)(/C(=N/O)CC[C@@]4(C)C(=O)O)[C@@H]2CC[C@H]1C3 | 330
* CCCCC/C=C/C(=O)O[C@H]1CC[C@@](C)(C(=O)O)[C@H]2CC[C@@]34C[C@H](CC[C@H]3[C@]12C)[C@@H](C)C4 | 16.9
* C[C@H]1O[C@H](O[C@H]2[C@H](O)[C@@H](O)[C@@H](O[C@H]3[C@H](O)[C@@H](O)C(O)O[C@@H]3CO)O[C@@H]2CO)[C@H](O)[C@@H](O)[C@@H]1N[C@H]1C=C(CO)[C@@H](O)[C@H](O)[C@H]1O (some centres undefined) [ACARBOSE] | 130
* CC(=O)O[C@H]1CC[C@@](C)(C(=O)O)[C@H]2CC[C@@]34C[C@H](CC[C@H]3[C@]12C)[C@@H](C)C4 | 146
* C=C1C[C@@]23CC[C@H]4[C@](C)([C@@H]2CC[C@H]1C3)[C@@H](O)CC[C@@]4(C)C(=O)O | 538
* CCCCCCCC(=O)O[C@H]1CC[C@@](C)(C(=O)O)[C@H]2CC[C@@]34C[C@H](CC[C@H]3[C@]12C)[C@@H](C)C4 | 22.8

(I) C[C@H]1C[C@@]23CC[C@H]4[C@@](C)([C@@H](OC(=O)C5CCCCC5)CC[C@@]4(C)C(=O)O)[C@@H]2CC[C@H]1C3
(II) CC(=O)O[C@H]1CC[C@@](C)(C(=O)O)[C@H]2CC[C@]34CC(=O)[C@@H](CC[C@H]3[C@]12C)C4
stdin: Lab note: check whether I or II has the lower measured IC50. Field: selected label. Fill in the label of the entry you choose.
stdout: I
(I: 16.1 µM, II: 262 µM)

(1) C=C1C[C@@]23CC[C@H]4[C@@](C)([C@@H](OC(C)=O)CC[C@@]4(C)C(=O)O)[C@@H]2CC[C@H]1C3
(2) CCCC(=O)O[C@H]1CC[C@@](C)(C(=O)O)[C@H]2CC[C@@]34C[C@H](CC[C@H]3[C@]12C)[C@@H](C)C4
(3) CCCCCCCCCCCCCCCCCC(=O)O[C@H]1CC[C@@](C)(C(=O)O)[C@H]2CC[C@@]34C[C@H](CC[C@H]3[C@]12C)[C@@H](C)C4
stdin: Rank descending by IC50. Record the ranking as a list of labels in the requested order.
stdout: 1, 2, 3
